Form field: melting point (one value per entry).

Answered cases to consult:
CCN1C(=O)C(NC(=O)C(F)(F)F)CCc2c1ccc(Nc1ncc(Cl)c(N[C@@H]3CCCC[C@H]3NS(C)(=O)=O)n1)c2OC (stereo not given in full); 160 to 162 °C
O=C(NNCCc1ccc(O)cc1)OCc1ccccc1; 94 to 97 °C
CCCCCCCCCCCC(CCCCC(=O)N(c1ccccc1)c1ccccc1)OC (stereo not given); 51 to 52 °C
CCCOc1ccc(F)cc1-c1ccc(C#N)c(=O)[nH]1; 242 to 243 °C
Nc1ccc(C(=O)c2ccccc2)cc1CC(=O)O; 143 to 145 °C
COc1cc(OC)nc(NC(=O)NS(=O)(=O)c2cccnc2-n2cncn2)n1; 226 to 230 °C
C#CCn1c(=O)cc(-c2ccccc2)c2cccnc21; 127 to 129 °C
O=C1c2ccccc2C(=O)N1OCCOCc1ccccc1F; 62 to 64 °C

// lookup melting point for `Fc1cccc(F)c1-c1ccc2ncccc2c1`
112 to 113 °C

Entry under review: `COCC(=O)Nc1cc(C#N)cc(NC(=O)COC)c1Cl` . Reported melting point?
173 to 174 °C

====

Recorded measurements of melting point, one per entry

Answered examples (3):
Cc1nc2c(c3c1[nH]c1ccccc13)C(=O)CC(c1ccccc1)C2 (stereo not given); 246 to 248 °C
COCc1nnc(N2N=C(c3ccc([N+](=O)[O-])c(Cl)c3)c3cc4c(cc3C[C@H]2C)OCO4)s1; 208 to 210 °C
O=C1C=c2cc3c(cc2CC1=O)=CCO3; 158 to 160 °C

I would be grateful if you could share the reported melting point for Cc1ccc(S(=O)(=O)OCC2Cc3cc(Cl)cc(-c4ccsc4)c3O2)cc1 (stereo not given) .
115 to 117 °C

What value of melting point has been reported for the following compound? `CN(C)C=NC(=O)C=Cc1ccccc1`
91 to 93 °C

====

parameter_measured: melting point

COc1cc(CCC(=O)C2CCCC2=O)cc(OS(=O)(=O)c2ccc(C)cc2)c1OC (stereo unspecified); 84 °C
CCCC(=O)c1cnc2c(OC)cccc2c1Nc1ccc(CO)cc1; 187 to 189 °C
S=C(SSC(=S)c1ccccc1)c1ccccc1; 89 to 91 °C
CC(C)CCCC(C)C1CC=C2C3=C(CCC21C)C1(C)CCC(F)CC1CC3 (stereo unspecified); 98.6 °C
CC1CC(=O)N(c2ccccc2)c2cc(Cl)ccc2N1 (stereo unspecified); 167 to 168 °C

Bench note: what melting point did `CC(C)(CO)CCS(N)(=O)=O` show?
75 to 76 °C

Data request, read-out melting point, for `NS(=O)(=O)c1ccc(-c2noc(-c3cnn4c(C(F)(F)F)cc(-c5ccc(C(F)(F)F)cc5)nc34)n2)cc1`
275 °C

Consider the molecule `CCc1nc(-c2ccccc2)c(NC(=O)Nc2ccccc2)s1` and give its measured melting point.
171 to 173 °C

Quick check: melting point of `O=C(NCCc1ncc(Cl)cc1Cl)c1ccccc1I` ?
133 °C

Given the entry `CN1CCN(c2ncnc3oc(-c4ccccc4)c(-c4ccc(F)cc4)c23)CC1` , report its measured melting point.
143 to 144 °C

Quick one: melting point for O=C1CCC(N2C(=O)c3ccccc3C2=S)C(=O)N1 (stereo unspecified) ?
255 °C

// query melting point value for entry `CC(=O)c1c(C#N)nn(-c2c(Cl)cc(C(F)(F)F)cc2Cl)c1N`
200 to 201 °C
